# assayTarget: CYP2C19 (Homo sapiens, UniProt P33261)
# Sequence (P33261 whole entry): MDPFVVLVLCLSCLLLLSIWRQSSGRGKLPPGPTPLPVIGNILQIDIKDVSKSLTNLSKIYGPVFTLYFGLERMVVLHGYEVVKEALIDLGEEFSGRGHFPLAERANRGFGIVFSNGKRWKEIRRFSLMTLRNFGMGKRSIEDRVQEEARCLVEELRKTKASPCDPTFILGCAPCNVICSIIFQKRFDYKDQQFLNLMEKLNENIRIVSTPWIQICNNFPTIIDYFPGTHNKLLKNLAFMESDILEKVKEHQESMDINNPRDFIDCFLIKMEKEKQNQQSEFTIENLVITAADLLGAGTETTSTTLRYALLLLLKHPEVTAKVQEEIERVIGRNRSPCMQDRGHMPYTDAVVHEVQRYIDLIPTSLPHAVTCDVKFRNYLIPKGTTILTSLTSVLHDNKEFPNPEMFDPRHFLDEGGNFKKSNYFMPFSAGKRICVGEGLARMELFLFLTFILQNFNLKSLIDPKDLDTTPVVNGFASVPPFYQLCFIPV
# assayRemarks: Clinical cocktail DDI study with fluoxetine, omeprazole probe
# Assay type: in vivo
# statedConditions: both, human, plasma, oral, 20 mg, probe omeprazole
measuredMetric: half-life (h)
Reply with just the number (in h).

In: Which half-life is listed for COc1ccc2[nH]c([S+]([O-])Cc3ncc(C)c(OC)c3C)nc2c1 (stereo not shown) ?
Out: 1.2

----------
# assayTarget: CYP3A4 (Homo sapiens)
# Sequence (P08684 whole entry): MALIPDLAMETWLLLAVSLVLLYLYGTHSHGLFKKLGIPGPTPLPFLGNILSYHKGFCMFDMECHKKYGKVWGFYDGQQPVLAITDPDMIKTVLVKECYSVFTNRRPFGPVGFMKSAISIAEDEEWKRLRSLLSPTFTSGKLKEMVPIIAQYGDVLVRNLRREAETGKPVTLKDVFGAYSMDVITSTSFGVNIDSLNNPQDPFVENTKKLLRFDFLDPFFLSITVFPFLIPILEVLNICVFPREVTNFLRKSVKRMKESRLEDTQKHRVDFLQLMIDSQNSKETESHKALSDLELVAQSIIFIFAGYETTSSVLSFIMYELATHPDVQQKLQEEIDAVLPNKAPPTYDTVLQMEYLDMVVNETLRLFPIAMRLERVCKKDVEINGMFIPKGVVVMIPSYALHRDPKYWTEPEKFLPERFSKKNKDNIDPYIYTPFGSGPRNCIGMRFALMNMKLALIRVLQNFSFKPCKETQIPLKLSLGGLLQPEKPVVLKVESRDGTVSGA
# Format: in vivo
# statedConditions: both, human, urine and plasma, oral
measuredMetric: CL renal (mL/min)
Reply with just the number (in mL/min).

In: Which CL renal is listed for `C[C@]12CCC(=O)C=C1CC[C@@H]1[C@@H]2[C@@H](O)C[C@@]2(C)[C@H]1CC[C@]2(O)C(=O)CO` ?
Out: 0.583
